Measured Kd of individual entries
Target: alpha-thrombin (active site blocked with fluorescein-PPACK) (Homo sapiens, UniProt P00734;P00734 P00734:328-363,P00734:364-622)
Experiment: fluorometric titration, 20 mM Tris, 150 mM NaCl, pH 7.4; exosite 2
Give the quantity in nM, number only.

AGTCCGTGGTAGGGCAGGTTGGGGTGACT (ssDNA, 3'-biotin (biotin TEG)) [ODN 2e]    85

# context switch: different binder, same Kd
Short answer for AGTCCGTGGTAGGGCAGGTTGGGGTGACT (ssDNA) [ODN 2a] : Kd was 16.5
